The values you see were collected from patent US4463007A.

# Test system: PCA in rats
# assay_procedure: Passive cutaneous anaphylaxis (PCA) in rats, anti-allergic action, oral administration
# Format: in vivo, rat
# cond: oral; PCA rats; Pirquinozol = 1.00
Threshold rule: R.A. (relative activity) greater than or equal to 2 is label 1; below that, label 0.

INSERT INTO assay_data (molecule, answer_label) VALUES
  ('CCOC(=O)c1nc2c3cc(C)c(C)cc3n(CC)c(=O)n2n1', 'label 0'),
  ('O=c1[nH]c2ccccc2c2cc(CO)nn12 [Pirquinozol, reference compound]', 'label 0'),
  ('CCOC(=O)c1nc2c3cc(C)c(C)cc3n(C)c(=O)n2n1', 'label 0'),
  ('CCOC(=O)c1nc2c3cc(Cl)ccc3n(C)c(=O)n2n1', 'label 0'),
  ('CCOC(=O)c1nc2c3cc(C)ccc3n(CC)c(=O)n2n1', 'label 1'),
  ('CCOC(=O)c1nc2c3ccccc3n(CC)c(=O)n2n1', 'label 0'),
  ('CCOC(=O)c1nc2c3cc(C)ccc3n(C)c(=O)n2n1', 'label 0'),
  ('CCOC(=O)c1nc2c3ccccc3n(C)c(=O)n2n1', 'label 1');
